Test system: PC-3 prostate
Assay: NCI tumour cell line growth inhibition, 48 h
measured property: TGI

Use the examples below as a reference point.
| compound | measured property | endpoint value |
| --- | --- | --- |
| CC/C(N)=N\NC(=O)OC(C)(C)C | TGI | > 100 µM |
| COc1ccc(C2=NC(c3ccc(Cl)cc3)C(c3ccc(Cl)cc3)N2C(=O)N2CCNC(=O)C2)c(OC(C)C)c1 (configuration not stated) | TGI | 4.79 µM |
| O=c1cc(N2CCCC2)[nH]c(=O)n1-c1ccc(Cl)cc1 | TGI | > 100 µM |
| CN(C(=O)CNC(=O)/C=C/c1cccc(Cl)c1)C1CCS(=O)(=O)CC1 | TGI | > 100 µM |
| CN(C)CCNC(=O)c1c(O)ccc2c1c1c(n2CCc2ccccc2)C(=O)c2ccccc2C1=O | TGI | 29.1 µM |
| Cn1cc(NC(=O)Nc2cc(C(=O)Nc3cc(C(=O)Nc4cc(S(=O)(=O)O)c5cc(S(=O)(=O)O)cc(S(=O)(=O)O)c5c4)n(C)c3)n(C)c2)cc1C(=O)Nc1cc(C(=O)Nc2cc(S(=O)(=O)O)c3cc(S(=O)(=O)O)cc(S(=O)(=O)O)c3c2)n(C)c1 | TGI | > 100 µM |
| CCCCCCCCCCCCCCCCOCC(O)CO (configuration not stated) | TGI | 37.8 µM |
| Cn1cc(-c2nc(N[C@@H]3CCCC[C@@H]3N)c(F)c3c2C(=O)NC3)cn1 | TGI | > 100 µM |
| CNC(c1ccncc1)C(NC)c1ccncc1 (configuration not stated) | TGI | > 100 µM |
| C(#Cc1ccccc1)SC1=C(c2ccccc2)S/C(=C(\SC#Cc2ccccc2)c2ccccc2)S1 | TGI | > 100 µM |

// sample `CN(C)CCCNC(=O)c1cn2c(ccc3sc4ccccc4c(=O)c32)n1` , its TGI was 9.43 µM

// sample Cc1ccc(/C=C2\N=C(N3CCCC(CO)C3)NC2=O)cc1 (configuration not stated) , its TGI was > 100 µM

###

Test system: SK-MEL-2 melanoma
Assay: NCI tumour cell line growth inhibition, 48 h; in the data active means GI50 below about 0.43 µM; inactive means the rest
Where a SMILES comes first, the peptide text is derived from it. The star is where a group is joined. Trt = c1ccc(C(c2ccccc2)(c2ccccc2)*)cc1; Cbz = O=C(OCc1ccccc1)*
Choose the fitting class; nothing outside active, inactive is accepted.

| compound | group |
| --- | --- |
| COC(=O)C(CSC(c1ccccc1)(c1ccccc1)c1ccccc1)NC(=O)C(CC(N)=O)NC(=O)OCc1ccccc1 (stereo not drawn) (Cbz-Asn-Cys(Trt)-OMe; configuration not given here) | inactive |

How was `COc1cc(Cn2c(-c3ccccc3)cc3c2-c2oncc2CC3)cc(OC)c1` classified in this test?
inactive

Which outcome was entered for the compound C=CC(C)(O)CC/C=C(\CO)C(=O)OC1C(C)OC(O[C@](C)(C=C)CC/C=C(\CO)C(=O)O[C@H]2C[C@@]3(C(=O)OC4OC(CO)C(O)C(O)C4OC4OC(C)C(OC5OC(CO)C(O)C5O)C(OC5OC(CO)C(O)C(O)C5O)C4O)C(CC2(C)C)C2=CCC4[C@@]5(C)CC[C@H](OC6OC(COC7OC(C)C(O)C(O)C7OC7OCC(O)C(O)C7O)C(O)C(O)C6NC(C)=O)C(C)(C)C5CC[C@@]4(C)[C@]2(C)C[C@H]3O)C(O)C1O (some centres undefined) in this test?
active

Answer briefly: the call reported for `COc1cccc(NC2=C(Cl)C(=O)N(Cc3ccc(Cl)cc3)C2=O)c1` in this assay.
inactive

Query: recorded result category for [CH3][Sn]1([CH3])[O]CC(COc2cc(Cl)c(Cl)cc2Cl)[O]1 (centres undefined) in this test
inactive

Cited source for all entries: PubChem BioAssay (NCI)
